Test: in vitro
Conditions: human
Mark Y only when CC50 at 5 days stays strictly below 7 µM. Values equal to the cut-off are N.

MOLECULE | CLASSIFICATION
Cc1cc(COc2ccccc2CO)cc(C)c1Oc1ccnc(Nc2ccc(C#N)cc2)n1 [TF10] | Y
COc1ccccc1OCc1cc(C)c(Oc2ccnc(Nc3ccc(C#N)cc3)n2)c(C)c1 [TF7] | N
Cc1cc(COc2cccc(C#N)c2)cc(C)c1Oc1ccnc(Nc2ccc(C#N)cc2)n1 [TF3] | Y
Cc1cc(COc2ccc(F)nc2)cc(C)c1Oc1ccnc(Nc2ccc(C#N)cc2)n1 [TF14] | N
Cc1cc(COc2cccc(CO)c2)cc(C)c1Oc1ccnc(Nc2ccc(C#N)cc2)n1 [TF9] | Y
Cc1cc(COc2cccnc2C#N)cc(C)c1Oc1ccnc(Nc2ccc(C#N)cc2)n1 [TF12] | Y
Cc1cc(COc2ccccc2C#N)cc(C)c1Oc1ccnc(Nc2ccc(C#N)cc2)n1 [TF4] | Y
COc1ccc(OCc2cc(C)c(Oc3ccnc(Nc4ccc(C#N)cc4)n3)c(C)c2)cc1 [TF5] | N
Cc1cc(COc2ccccc2)cc(C)c1Oc1ccnc(Nc2ccc(C#N)cc2)n1 [TF1] | N
Cc1cn([C@H]2C[C@H](N=[N+]=[N-])[C@@H](CO)O2)c(=O)[nH]c1=O [AZT, Zidovudine, reference compound] | N
Cc1cc(COc2ccc(N)cc2)cc(C)c1Oc1ccnc(Nc2ccc(C#N)cc2)n1 [TF17] | Y
Cc1cc(COc2cncc(C#N)c2)cc(C)c1Oc1ccnc(Nc2ccc(C#N)cc2)n1 [TF13] | Y
Cc1cc(COc2ccc([N+](=O)[O-])cc2)cc(C)c1Oc1ccnc(Nc2ccc(C#N)cc2)n1 [TF15] | N
Cc1cc(COc2ccc(NC(=O)OC(C)(C)C)cc2)cc(C)c1Oc1ccnc(Nc2ccc(C#N)cc2)n1 [TF16] | Y
Cc1cc(COc2ccc(C#N)cc2)cc(C)c1Oc1ccnc(Nc2ccc(C#N)cc2)n1 [TF2] | N
Cc1cc(COc2ccc(CO)cc2)cc(C)c1Oc1ccnc(Nc2ccc(C#N)cc2)n1 [TF8] | Y
Cc1cc(COc2cccnc2)cc(C)c1Oc1ccnc(Nc2ccc(C#N)cc2)n1 [TF11] | N
Cc1ccnc2c1NC(=O)c1cccnc1N2C1CC1 [NVP, nevirapine, reference compound] | N

Entry source: paper PMC9697031
